Measured melting point accompanies every entry in the list below.

Illustrative cases are given below, each with its answer.
- chemical structure: "O=C(Nc1ccc(C(=O)N2CCOCC2)cc1)c1n[nH]cc1Nc1ncnc2sccc12"
  recorded measurement: "243 to 244 °C"
- chemical structure: "O=C(Nc1ccc(N2CCNCC2)cn1)c1n[nH]cc1Nc1ncnc2sc3c(c12)CCCC3"
  recorded measurement: "266 to 267 °C"
- chemical structure: "CN1CCCN(c2cccc(NC(=O)c3n[nH]cc3Nc3ncnc4[nH]ccc34)c2)CC1"
  recorded measurement: "215 to 216 °C"

// switching to the query compound
Exam item: Return value of melting point for input O=C(Nc1ccc(N2CCNCC2)cn1)c1n[nH]cc1Nc1ncnc2[nH]ccc12 , no commentary.
Marked response: 288 to 290 °C

---

observed property: melting point

// solved cases for melting point follow
- compound: "O=C(Nc1ccc(N2CCNCC2)cc1)c1n[nH]cc1Nc1ncnc2sc3c(c12)CCC3 [Compound 8t]"
  melting point: "266 to 268 °C"
- compound: "O=C(Nc1ccc(N2CCNCC2)cn1)c1n[nH]cc1Nc1ncnc2c1CCC2 [Compound 8q]"
  melting point: "> 290 °C"
- compound: "CN1CCCN(c2ccc(NC(=O)c3n[nH]cc3Nc3ncnc4[nH]ccc34)cc2)CC1 [Compound 8d]"
  melting point: "263 to 264 °C"
- compound: "O=C(Nc1ccc(N2CC3CC2CN3)cc1)c1n[nH]cc1Nc1ncnc2[nH]ccc12 (centres unmarked) [Compound 8j]"
  melting point: "248 to 249 °C"
- compound: "CC(C)(C)OC(=O)N1CCC(NC(=O)c2n[nH]cc2Nc2ncnc3[nH]ccc23)CC1 [Compound 3c]"
  melting point: "268 to 269 °C"

Exam item: Return value of melting point for input O=C(Nc1ccc(N2CCNCC2)cc1)c1n[nH]cc1Nc1ncnc2[nH]ccc12 [Compound 8h] , no commentary.
Marked response: 304 to 305 °C

Exam item: Fill in melting point for record O=C(Nc1ccc(N2CCOCC2)cc1)c1n[nH]cc1Nc1ncnc2sc3c(c12)CCCC3 [Compound 8r]
Marked response: 267 to 268 °C

Exam item: Specify melting point for O=C(Nc1ccc(N2CCNCC2)cn1)c1n[nH]cc1Nc1ncnc2sccc12 [Compound 8k] and stop.
Marked response: > 300 °C

---

assayed target: CDK3/cyclin E (Homo sapiens)
Construct: purchased Reaction Biology Corp
Sequence (Q00526 whole entry): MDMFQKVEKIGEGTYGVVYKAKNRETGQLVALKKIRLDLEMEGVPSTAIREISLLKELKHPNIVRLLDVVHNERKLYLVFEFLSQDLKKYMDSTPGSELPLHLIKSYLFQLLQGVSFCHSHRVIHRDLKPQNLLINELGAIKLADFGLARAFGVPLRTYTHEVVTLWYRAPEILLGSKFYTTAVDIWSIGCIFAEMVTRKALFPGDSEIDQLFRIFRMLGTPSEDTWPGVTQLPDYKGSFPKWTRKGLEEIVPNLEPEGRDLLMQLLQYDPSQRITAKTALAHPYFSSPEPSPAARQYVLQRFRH
Sequence (P24864 whole entry partner): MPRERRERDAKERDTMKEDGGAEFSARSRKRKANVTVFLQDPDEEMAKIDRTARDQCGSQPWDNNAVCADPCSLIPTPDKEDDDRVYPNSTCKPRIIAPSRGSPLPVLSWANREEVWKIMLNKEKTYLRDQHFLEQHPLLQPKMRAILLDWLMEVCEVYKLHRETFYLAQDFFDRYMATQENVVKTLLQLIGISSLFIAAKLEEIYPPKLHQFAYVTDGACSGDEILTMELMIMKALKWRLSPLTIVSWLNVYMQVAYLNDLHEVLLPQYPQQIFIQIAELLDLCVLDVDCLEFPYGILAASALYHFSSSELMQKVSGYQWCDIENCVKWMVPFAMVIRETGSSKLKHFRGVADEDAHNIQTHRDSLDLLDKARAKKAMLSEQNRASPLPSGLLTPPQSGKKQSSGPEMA
test name: Hot-Spot kinase profiling
Format: biochemical
assay setup: Table 5 kinase profiling
observed property: IC50 (nM)
Just the number in nM, nothing appended.

Exam item: Identify the reported IC50 for the following entry. O=C(Nc1ccc(N2CCNCC2)cc1)c1n[nH]cc1Nc1ncnc2sc3c(c12)CCC3
Marked response: 6.88

---

assayed target: ERK7/MAPK15 (Homo sapiens, UniProt Q8TD08)
Sequence (Q8TD08 whole entry): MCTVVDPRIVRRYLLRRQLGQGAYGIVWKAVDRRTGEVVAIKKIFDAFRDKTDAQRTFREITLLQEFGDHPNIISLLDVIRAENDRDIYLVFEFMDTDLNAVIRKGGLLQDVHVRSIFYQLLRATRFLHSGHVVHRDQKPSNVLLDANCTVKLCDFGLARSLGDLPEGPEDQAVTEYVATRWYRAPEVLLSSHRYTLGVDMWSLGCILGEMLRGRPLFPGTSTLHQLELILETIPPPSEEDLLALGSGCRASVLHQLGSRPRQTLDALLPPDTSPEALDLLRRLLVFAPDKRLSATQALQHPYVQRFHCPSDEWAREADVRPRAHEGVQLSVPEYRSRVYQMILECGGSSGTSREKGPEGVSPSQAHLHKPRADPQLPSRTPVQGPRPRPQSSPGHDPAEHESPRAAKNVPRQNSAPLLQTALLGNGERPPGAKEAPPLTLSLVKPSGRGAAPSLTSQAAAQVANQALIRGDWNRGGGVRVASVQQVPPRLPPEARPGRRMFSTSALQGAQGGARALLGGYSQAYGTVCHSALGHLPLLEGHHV
test name: Hot-Spot kinase profiling
assay setup: Table 5 kinase profiling
observed property: IC50 (nM)
Report only the number, with the unit nM understood.

Exam item: Give a short answer stating reported IC50 for O=C(Nc1ccc(N2CCNCC2)cc1)c1n[nH]cc1Nc1ncnc2sc3c(c12)CCC3 [Compound 8t] .
Marked response: 9.57

---

assayed target: FLT3 (D835Y) (Homo sapiens, UniProt P36888, D835Y)
test name: Hot-Spot kinase profiling
assay setup: Table 5 kinase profiling
observed property: IC50 (pM)
Please state the figure in pM; there is no need to write the unit.

Exam item: Using the record for O=C(Nc1ccc(N2CCNCC2)cc1)c1n[nH]cc1Nc1ncnc2sc3c(c12)CCC3 , state its measured IC50.
Marked response: 750
